Could you please report measured activity change (Venus) for the items listed next?
experiment: blocks a specific stage of Vaccinia orthopoxvirus infection, primary screen, cell-based, single point (AID 1053133); conditions: Vaccinia-infected cells, mCherry/Venus stage reporter fluorescence, stronger effect = lower value, concentration not given here; measured here: Venus reporter, other viral stage
The whole screen tested about 89,000 compounds, of which about 10 (0.01%) were called active. About 10% were inconclusive and are not listed. The list is a sample of the results.
Give bare numbers, in %.

# RECORD_SMILES, REPORTED_METRIC, VALUE_REPORTED
measured = [
    ("CCCC(=O)N1CC2(CCN(C(=O)C3CC3)CC2)c2c(n(C)c3cc(OC)ccc23)[C@H]1CO", "activity change (Venus)", -6.7),
    ("CCCNC(=O)N1[C@H](C#N)[C@@H](c2ccccc2C2=CCCCC2)[C@@H]1CO", "activity change (Venus)", 2.66),
]

Next:
Report activity change (Venus) for `COc1ccc(NC(=O)N(C)C[C@@H]2OCCCC[C@H](C)Oc3ccc(NS(=O)(=O)c4cn(C)cn4)cc3C(=O)N([C@@H](C)CO)C[C@@H]2C)cc1`
6.5

Reference for the values: PubChem BioAssay AID1053133
